# TARGET OF ASSAY: Serine/threonine-protein kinase mTOR (Homo sapiens) (UniProt P42345)
# Sequence (P42345 2015-2114): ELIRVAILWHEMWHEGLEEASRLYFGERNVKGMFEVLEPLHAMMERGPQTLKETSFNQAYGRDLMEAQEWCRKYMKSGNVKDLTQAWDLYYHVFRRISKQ
# TEST SUMMARY: binders of mTOR FRB domain, biophysical, NMR (AID 1648)
# CONDITION CONTEXT: NMR binding to FRB domain, chemical shift
Activity calls are given as the source filed them. The rule behind the calls is not given here.
Here the recorded Kd is given for each entry.
ATTRIBUTE MEASURED: Kd

[[record]]
molecule = "COc1ccc2nc(SCC(N)=O)[nH]c2c1"
experimental_value = "> 4 mM (inactive)"

[[record]]
molecule = "Cn1cnc2c(Cl)ncnc21"
experimental_value = "> 4 mM (inactive)"

[[record]]
molecule = "O=C1CCC(c2cccs2)=NN1"
experimental_value = "> 4 mM (inactive)"

[[record]]
molecule = "Cc1cccc(C)c1NC(=O)/C=C/C(=O)O"
experimental_value = "> 4 mM (inactive)"

[[record]]
molecule = "Cc1nc2ccc(C(=O)O)cc2[nH]1"
experimental_value = "> 4 mM (inactive)"

[[record]]
molecule = "O=C1CCC(=O)N1c1ccc(F)cc1"
experimental_value = "> 4 mM (inactive)"

[[record]]
molecule = "CCc1noc(C)c1C(=O)N1CCCC1"
experimental_value = "> 4 mM (inactive)"

[[record]]
molecule = "Nc1nc2n(c1C(=O)c1ccccc1)CCC2"
experimental_value = "> 4 mM (inactive)"

[[record]]
molecule = "O=C(O)c1cccnc1N1CCOCC1"
experimental_value = "> 4 mM (inactive)"

[[record]]
molecule = "COc1ccc2c(c1)OCC(Cc1ccc(OC)c(OC(C)=O)c1)C2=O (centres undefined)"
experimental_value = "> 4 mM (inactive)"

[[record]]
molecule = "Cc1noc(-c2ccccc2)c1C(=O)O"
experimental_value = "> 4 mM (inactive)"

[[record]]
molecule = "O=C1NC2NC(=O)N(c3ccccc3)C2N1 (centres undefined)"
experimental_value = "> 4 mM (inactive)"

[[record]]
molecule = "Cc1cc(C)n(CCC(=O)O)n1"
experimental_value = "> 4 mM (inactive)"

[[record]]
molecule = "O=C(O)Cc1nc(-c2ccncc2)n[nH]1"
experimental_value = "> 4 mM (inactive)"

[[record]]
molecule = "NC(=O)C1CCN(CN2C(=O)c3ccccc3C2=O)CC1"
experimental_value = "> 4 mM (inactive)"

[[record]]
molecule = "CN(c1ccccc1C(=O)N1CCCC1)S(C)(=O)=O"
experimental_value = "> 4 mM (inactive)"

[[record]]
molecule = "O=C(Nc1ccc2c(c1)OCO2)c1cccc(F)c1"
experimental_value = "> 4 mM (inactive)"

[[record]]
molecule = "Cc1cc(SCC(=O)c2ccccc2)nc(=O)[nH]1"
experimental_value = "> 4 mM (inactive)"

[[record]]
molecule = "CC(=O)Nc1ccc(S(=O)(=O)NC(N)=O)cc1"
experimental_value = "> 4 mM (inactive)"

[[record]]
molecule = "Cc1cc(C)n(-c2nc(C)nc(N)n2)n1"
experimental_value = "> 4 mM (inactive)"

[[record]]
molecule = "O=C(NCCO)c1cc2ccccc2cc1O"
experimental_value = "> 4 mM (inactive)"

[[record]]
molecule = "O=C(Nc1ccon1)c1ccc2c(c1)OCO2"
experimental_value = "> 4 mM (inactive)"

[[record]]
molecule = "COc1cc2c(c(OC)c1OC)-c1ccc(OC)c(=O)cc1[C@@H](NC(C)=O)CC2"
experimental_value = "> 4 mM (inactive)"

[[record]]
molecule = "Cc1cc(C)c2ccc[n+]([O-])c2c1O"
experimental_value = "> 4 mM (inactive)"

[[record]]
molecule = "Oc1cc(O)cc(/C=C/c2ccccc2)c1"
experimental_value = "> 4 mM (inactive)"

[[record]]
molecule = "Oc1ccccc1N1CCOCC1"
experimental_value = "> 4 mM (inactive)"

[[record]]
molecule = "Cc1nnc(C)n1/N=C/c1cccs1"
experimental_value = "> 4 mM (inactive)"

[[record]]
molecule = "Cc1ccc(C(=O)Nn2cnnc2)s1"
experimental_value = "> 4 mM (inactive)"

[[record]]
molecule = "Cc1noc(-c2ccccc2)c1CO"
experimental_value = "> 4 mM (inactive)"


Entry source: PubChem BioAssay AID1648
